Test system: OV90
PROTOCOL NOTES: Primary qHTS to identify gynecologic anti-cancer compounds using libraries of approved drugs and bioactive compounds (AID 1345084); further: potency means the concentration at half of the fitted maximal effect; nearly all actives have a fitted effect of over 55% in size
CONDITION SET: Gynecologic cancer cell panel viability, ATPlite luminescence, 48 h; series mostly up to 57.5 µM
Records with an inconclusive call do not appear. Active and inactive are the calls of the source. The call rests on the fitted dose curve; in most records, active means well fitted cell-killing curve with a large enough effect; inconclusive means small, poorly fitted or top-dose-only effect, or effect the other way; inactive means flat fitted curve, though single readings scatter.
Attribute: Potency

The following compounds have reported results that may help.
> print(dat)
                                   compound            result
1  O=C(O)/C=C/c1ccc(-c2ccc(O)c(C34CC5CC(CC(C5)C3)C4)c2)cc1    10 µM (active)
2  O=C(/C=C/c1cccc(S(=O)(=O)Nc2ccccc2)c1)NO  3.98 µM (active)
3  Nc1ccc(/C=C/C(=O)NCc2cc3cc(-c4ccc(C(=O)N5CCC(F)(F)CC5)cc4)cc(-c4ccc(F)cc4)c3o2)cn1  3.55 µM (active)

The recorded Potency for "NCCCNc1ccc(Nc2nccc(Nc3cc(C4CC4)[nH]n3)n2)cc1" is 8.91 µM (active)

The recorded Potency for "CC(C)(C)c1ccc(S(=O)(=O)NCc2ccc(C(=O)Nc3cccnc3)cc2)cc1" is 3.98 µM (active)

The recorded Potency for CN1CCN(C2CCC(n3cc(-c4ccc(Oc5ccccc5)cc4)c4c(N)ncnc43)CC2)CC1 (stereo unspecified) is 17.8 µM (active)

----------
Tested on: NIH3T3
PROTOCOL NOTES: Cytotoxic Profiling of Annotated Libraries Using Quantitative High-Throughput Screening (AID 1296008); further: nearly all actives have a fitted effect of over 60% in size
CONDITION SET: Five cell lines viability, CellTiter-Glo ATP luminescence, 48-72 h
Results filed as inconclusive are left out. The source made the active and inactive calls. The call rests on the fitted dose curve; in most records, active means well fitted inhibition curve with a large enough effect; inconclusive means small, poorly fitted or top-dose-only effect; inactive means flat fitted curve, though single readings scatter.
Your response should consist of one outcome taken from active, inactive

Enquiry: Record lookup: outcome of this test for "Cn1cc(S(=O)(=O)c2ccc(Cl)cc2)c2cccc(N3CCNCC3)c21" ?
Return: active

Enquiry: Record lookup: outcome of this test for "CCCCCCOc1cc2c(cc1N(C)c1ncc(C(=O)O)cn1)C(C)(C)CCC2(C)C" ?
Return: inactive

----------
PROTOCOL NOTES: Primary fluorescence-based thiol-reactive (MSTI) qHTS assay for identification of artifact compounds. (AID 1845221); further: nearly all actives have a fitted effect of over 65% in size
CONDITION SET: MSTI thiol-reactivity probe, 1 h; series mostly up to 53.8 µM
Description: PI: Alexander Tropsha Ph.D. UNC Eshelman School of Pharmacy University of North Carolina, Chapel Hill, North Carolina Hits from high-throughput screening (HTS) of chemical libraries are often false positives due to their interference with the assay detection technology. […] Using these curated datasets, we developed and validated several Quantitative Structure-Interference Relationship (QSIR) models to predict nuisance behavior. […]
Records with an inconclusive call do not appear. Active and inactive are the calls of the source. Calls come from the whole dose curve; as a rule, active = well fitted inhibition curve with a large enough effect; inconclusive = small, poorly fitted or top-dose-only effect; inactive = no such curve, though single readings can be large or run the other way. Where a SMILES comes first, the peptide text is derived from it. [ ]: non-standard residue; d: D form. ξ: configuration not given here. ξLac(3-iPr) = CC(C)CC(O)C(=O)O; NMeV = CN[CH](C(=O)O)C(C)C; βAla = NCCC(=O)O
Your response should consist of one outcome taken from label 1 for active, label 0 for inactive

MOLECULE	CLASS
O=C(O)CC(=O)OC[C@H]1O[C@@H](Oc2ccc3c(c2)OC[C@H]2c4cc5c(cc4O[C@@H]32)OCO5)[C@H](O)[C@@H](O)[C@@H]1O	label 0

Enquiry: Record lookup: outcome of this test for "COc1ccc2c(OC)c3ccoc3nc2c1OC" ?
Return: label 0

Enquiry: Record lookup: outcome of this test for CC(C)CC1OC(=O)C2CCCN2C(=O)CCNC(=O)C(Cc2ccccc2)NC(=O)C(C(C)C)N(C)C(=O)C(C(C)C)N(C)C1=O (stereo not drawn) (cyclo([ξLac(3-iPr)][NMeV][NMeV]F[βAla]P); configuration not given here) ?
Return: label 0

Enquiry: Record lookup: outcome of this test for "CNC(=O)c1ccccc1Nc1cc(Nc2ccc(N3CCOCC3)cc2OC)ncc1C(F)(F)F" ?
Return: label 1

Enquiry: Record lookup: outcome of this test for C=C(C(=O)O)C1CCC2(C)CCC(O)C(=C)C2C1 (stereo not drawn) ?
Return: label 1

Enquiry: Record lookup: outcome of this test for "CN[C@H](C(=O)N[C@H](C(=O)N(C)[C@H](/C=C(\C)C(=O)O)C(C)C)C(C)(C)C)C(C)(C)c1ccccc1" ?
Return: label 0

Enquiry: Record lookup: outcome of this test for "O=C(/C=C\n1cnc(-c2cc(C(F)(F)F)cc(C(F)(F)F)c2)n1)N1CC(F)(F)C1" ?
Return: label 0

Enquiry: Record lookup: outcome of this test for CC1=C(C(=O)O)/C(=C\CO[C@@H]2O[C@H](CO)[C@@H](O)[C@H](O)[C@H]2O)C(OC(=O)/C=C/c2ccc(O)cc2)C1 (stereo partly drawn) ?
Return: label 1
